Target: human adenosine A1 receptor (Homo sapiens)
Sequence (P30542 whole entry): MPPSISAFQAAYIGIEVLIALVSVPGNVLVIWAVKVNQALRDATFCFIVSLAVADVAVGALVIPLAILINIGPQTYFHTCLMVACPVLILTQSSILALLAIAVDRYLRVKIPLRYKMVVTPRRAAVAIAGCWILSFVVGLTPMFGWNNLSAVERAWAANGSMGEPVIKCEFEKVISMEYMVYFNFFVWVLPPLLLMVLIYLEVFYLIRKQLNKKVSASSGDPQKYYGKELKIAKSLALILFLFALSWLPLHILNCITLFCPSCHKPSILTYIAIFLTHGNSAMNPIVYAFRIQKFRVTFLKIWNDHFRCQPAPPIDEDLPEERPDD
measure.name: pIC50
Reminder that pIC50 means the negative base-10 logarithm of the concentration expressed in mol/L.

Field pIC50 (system: human adenosine A1 receptor (Homo sapiens)) for entry "c1ccc(-c2nc(-c3ccccc3)c3nc(C4CCCC4)[nH]c3n2)cc1" = 7.13
